Reported values of viability, T/C for individual entries
tested on: 624824-186-R-J3-PDC multicell spheroids, viability; assay: Anticancer human tumor 624824-186-R-J3-PDC patient-derived colon adenocarcinoma cell line growth inhibition [PI3K]; settings: second compound 0.01 µM; first compound 0.316 µM; active compounds read low;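 also: luminescent signal used as a stand-in for spheroid viability; spheroids exposed to agents for seven days before luminescence read; percent viability relative to DMSO vehicle control wells taken as 100%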
Reply with just the number (in %).

Would you please look over these solved cases?
| COMPOUND | TARGET OR SYSTEM | OBSERVABLE | UNIT | EXPERIMENTAL VALUE |
| --- | --- | --- | --- | --- |
| CC1(C)CCC(Nc2ncc(C(F)(F)F)c(-c3c[nH]c4c(P(C)(C)=O)c(C#N)ccc34)n2)CN1 (stereo not drawn) + CC(Nc1ccc2c(c1)OCCn1cc(N3C(=O)OCC3C(F)F)nc1-2)C(N)=O | 624824-186-R-J3-PDC multicell spheroids, viability | viability, T/C | % | 92.7 |
| Cn1nccc1Nc1nccc(-c2ccn(C(CO)c3ccc(Cl)c(F)c3)c(=O)c2)n1 (stereo not drawn) + CC(Nc1ccc2c(c1)OCCn1cc(N3C(=O)OCC3C(F)F)nc1-2)C(N)=O | 624824-186-R-J3-PDC multicell spheroids, viability | viability, T/C | % | 90 |

Reported viability, T/C for CCN1CCN(Cc2ccc(Nc3ncc(F)c(-c4cc(F)c5nc(C)n(C(C)C)c5c4)n3)nc2)CC1 + COc1c(OCCCN2CCOCC2)ccc2c3n(c(=NC(=O)c4cnc(N)nc4)nc12)CCN3 was 76.5

Source of measurements: PubChem BioAssay AID1963977
